System: Human umbilical vein endothelial cell
Test: In Vitro Angiogenesis Assay (morphogenesis / tube formation on Matrigel)
Assay type: cell-based
Set-up: key: Individual cells, well separated (+++++); Cells begin to migrate and align themselves (++++); Cells begin to line but not sprouting (+++); Visible Sprouting (++); Closed polygons begins to form (+)
Conditions: HUVECs 10^4 cells/well on ECMatrix, inhibitors 1 mM and 10 mM, 8 hours at 37° C.; higher score = greater inhibition of angiogenesis
readout: In Vitro Angiogenesis Assay Results (score of extent of cellular networks)

// solved cases for In Vitro Angiogenesis Assay Results (score of extent of cellular networks) follow
>>> df
                                   molecule  experimentalresult
0  CCCCCCCCCCOc1ccc(C(=O)N/N=C/c2ccc(OC)cc2)cc1 [Example 3]                ++++
1  CCCCCCCOc1ccc(/C=N\NC(=O)c2ccc(Br)cc2)cc1 [Example 4]                 +++
2  CCCCCCCCCCCCCCCCOc1ccc(C(NNS(=O)(=O)c2cccc(C(=O)O)c2)N2CCCCC2)cc1 (stereo not shown) [Example 2]                ++++
3  CCC(CNCCO)Nc1nc2c(c(=O)n(C)c(=O)n2C)n1Cc1ccccc1 (stereo not shown) [Example 7]                  ++
4  COc1ccc(NCC(O)Cn2cnc3c2c(=O)n(C)c(=O)n3C)cc1 (stereo not shown) [Example 1]               +++++

Go through the list and state In Vitro Angiogenesis Assay Results (score of extent of cellular networks) for each entry.
1. CCCCCCCCCCCCCCCCCCOc1ccc(C(=O)CC(=O)Nc2ccc(Oc3ccc(C(=O)O)cc3)c(C(=O)O)c2)cc1 [Example 6]
2. CCCCCCCCCCCCCCCCCCOc1ccc(C(=O)CC(=O)Nc2ccc(Sc3cccc(C(=O)O)c3)c(C(=O)O)c2)cc1 [Example 5]

Result:
++
+++
